molecular target: IKKε (Homo sapiens, UniProt Q14164); construct: purchased Invitrogen PR8031B; assay: IKKε inhibition, ADP-Glo Kinase Assay; assay type: biochemical; details: luminometer
Classify: Satisfied when IC50 is strictly less than 0.04 µM; Not satisfied when IC50 is not.

Query: Hello, is IC50 of the following compound strictly smaller than 0.04 µM? CN1CCN(c2ccc(C(=O)Nc3n[nH]c4ccc(C(=O)NC5(c6cccs6)CCCCC5)cc34)cc2)CC1
Reply: Not satisfied

Query: Another compound to check: CCC(NC(=O)c1ccc2[nH]nc(NC(=O)c3ccc(N4C[C@@H](C)N[C@@H](C)C4)cc3)c2c1)c1cccs1 (stereo partly drawn) [Example 99, 2,2,2-trifluoroacetate]
Reply: Satisfied

Query: Another compound to check: CC(NC(=O)c1ccc2[nH]nc(NC(=O)c3ccc(N4CCOCC4)cc3)c2c1)c1ccncc1 (stereo not drawn)
Reply: Not satisfied

Query: Another compound to check: O=C(Nc1n[nH]c2ccc(C(=O)NC3(c4ccccc4)CC3)cc12)c1ccc(N2CCOCC2)cc1
Reply: Satisfied

Query: Another compound to check: CCC(NC(=O)c1ccc2[nH]nc(NC(=O)c3ccc(N4CCN(C(C)=O)CC4)cc3)c2c1)c1ccsc1 (stereo not drawn)
Reply: Satisfied

Query: Another compound to check: Cc1cc(CNC(=O)c2ccc3[nH]nc(NC(=O)c4ccc(N5CCOCC5)cc4)c3c2)ccn1
Reply: Not satisfied

Query: Another compound to check: CC1CN(c2ccc(C(=O)Nc3n[nH]c4ccc(C(=O)NC(C)c5ccccc5)cc34)cc2)CC(C)N1 (stereo not drawn)
Reply: Satisfied

Query: Another compound to check: CN1CCN(c2ccc(C(=O)Nc3n[nH]c4ccc(C(=O)NCc5ccncc5)cc34)cc2)CC1
Reply: Not satisfied

Query: Another compound to check: CCC(C)(NC(=O)c1ccc2[nH]nc(NC(=O)c3ccc(N4CCN(C)CC4)cc3)c2c1)c1cccs1 (stereo not drawn)
Reply: Not satisfied

Query: Another compound to check: CCC(NCc1ccc2[nH]nc(NC(=O)c3ccc(F)cc3)c2c1)c1cccs1 (stereo not drawn)
Reply: Not satisfied

Query: Another compound to check: CN1CCN(c2ccc(C(=O)Nc3n[nH]c4ccc(C(=O)NC(c5cccs5)C(F)(F)F)cc34)cc2)CC1 (stereo not drawn)
Reply: Satisfied

Query: Another compound to check: CCC(NC(=O)c1ccc2[nH]nc(NC(=O)c3ccc(N4CCC(OC)CC4)cc3)c2c1)c1cccs1 (stereo not drawn)
Reply: Satisfied

Query: Another compound to check: CN1CCN(c2ccc(C(=O)Nc3n[nH]c4ccc(C(=O)NC5(c6ccccc6)CC5)cc34)cc2)CC1
Reply: Satisfied

Query: Another compound to check: Cc1cnc(-c2cc3[nH]nc(NC(=O)c4ccc(N5CCN(C)CC5)cc4)c3s2)o1
Reply: Not satisfied

Query: Another compound to check: CN1CCN(c2ccc(C(=O)Nc3n[nH]c4ccc(C(=O)NCc5ccc(C(F)(F)F)nc5)cc34)cc2)CC1
Reply: Not satisfied

* * *

Could you please report measured log10 of IC50 for the items listed next?
Molecular target: IKKε (Homo sapiens)
Construct: purchased Invitrogen PR8031B
Sequence (Q14164 1-716): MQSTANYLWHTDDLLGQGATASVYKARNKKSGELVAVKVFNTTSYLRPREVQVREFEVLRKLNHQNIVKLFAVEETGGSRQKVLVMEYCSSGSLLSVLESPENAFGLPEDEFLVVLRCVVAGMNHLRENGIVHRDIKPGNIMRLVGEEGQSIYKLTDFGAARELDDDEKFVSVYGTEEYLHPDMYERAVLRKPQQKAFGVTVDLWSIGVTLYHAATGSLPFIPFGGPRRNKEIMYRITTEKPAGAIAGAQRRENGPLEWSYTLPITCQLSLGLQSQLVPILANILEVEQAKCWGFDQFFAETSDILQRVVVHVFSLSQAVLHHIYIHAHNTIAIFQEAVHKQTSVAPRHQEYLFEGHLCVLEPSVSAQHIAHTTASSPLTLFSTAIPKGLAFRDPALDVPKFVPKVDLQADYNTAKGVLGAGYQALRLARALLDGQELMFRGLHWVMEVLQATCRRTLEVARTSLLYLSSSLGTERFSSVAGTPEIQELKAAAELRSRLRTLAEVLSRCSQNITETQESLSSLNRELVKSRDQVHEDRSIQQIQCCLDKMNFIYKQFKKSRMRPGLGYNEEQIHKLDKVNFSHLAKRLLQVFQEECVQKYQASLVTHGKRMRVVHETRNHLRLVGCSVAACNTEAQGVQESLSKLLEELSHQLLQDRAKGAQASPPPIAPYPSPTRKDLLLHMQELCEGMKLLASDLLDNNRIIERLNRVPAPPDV
Test: IKKε inhibition, ADP-Glo Kinase Assay
Type: biochemical
Conditions: luminometer
// do not treat as linear: log10 of IC50, unit µM

Query: log10 of IC50 lookup needed for C[C@H]1CN(c2ccc(C(=O)Nc3n[nH]c4ccc(C(=O)NCc5cccs5)cc34)cc2)CCN1 [Example 117, 2,2,2-trifluoroacetate] , thanks.
Reply: -1.15

Query: Another molecule to check: CCC(NC(=O)c1ccc2[nH]nc(NC(=O)c3ccc(N4CC(C)NC(C)C4)cc3)c2c1)c1cccs1 (stereo not shown) [Example 95, 2,2,2-trifluoroacetate]
Reply: -1.68

Query: Another molecule to check: Cc1cc(C(=O)Nc2n[nH]c3ccc(C(=O)NCc4cccs4)cc23)ccc1N1CCOCC1 [Example 78]
Reply: -0.70

Query: Another molecule to check: COCCCNc1ccc(C(=O)Nc2n[nH]c3ccc(C(=O)NCc4cccs4)cc23)cc1 [Example 151]
Reply: -1.28

Query: Another molecule to check: CN1CCN(c2ccc(C(=O)Nc3n[nH]c4ccc(C(=O)NC(C)(C)c5ccsc5)cc34)cc2)CC1 [Example 145]
Reply: -1.48

Query: Another molecule to check: Cc1cc(N2CCOCC2)ccc1C(=O)Nc1n[nH]c2ccc(C(=O)NCc3cccs3)cc12 [Example 73]
Reply: -1.36

Query: Another molecule to check: Cc1cc(C(=O)Nc2n[nH]c3ccc(C(=O)NCc4cccs4)cc23)ccc1N1CCN(C)CC1 [Example 79]
Reply: -0.66

* * *

Target: IKKε (Homo sapiens)
Construct: purchased Invitrogen PR8031B
Assay: IKKε inhibition, ADP-Glo Kinase Assay
Type: biochemical
Details: luminometer
Method: Inhibition activities on TNIK, IKKε and TBK1 were evaluated using the compounds of Examples 1 to 254. The inhibition activities on TNIK, IKKε and TBK1 were measured by a luminometer, TNIK/IKKε/TBK1 Kinase Enzyme System (Promega, Ca# V4158; Invitrogen, PR8031B, Promega, Ca# V3991) and ADP-Glo Kinase Assay using ADP-Glo™ Kinase Analysis Kit (Promega, Ca# V9101) and a kinase reaction buffer [40 mM Tris(pH 7.5), 20 mM MgCl2, 0.1 mg/mL BSA] in accordance with the manufacturer's protocol.
Quantity Measured: IC50 (µM)
Just the number in µM, nothing appended.

Query: IC50 lookup needed for O=C(NCc1ncon1)c1ccc2[nH]nc(NC(=O)c3ccc(N4CCOCC4)cc3)c2c1 [Example 105, 2,2,2-trifluoroacetate] , thanks.
Reply: 1.14

Query: Another molecule to check: CC[C@@H](NC(=O)c1ccc2[nH]nc(NC(=O)c3ccc(N4CCN(C)CC4)cc3)c2c1)c1ccccc1 [Example 191]
Reply: 0.014

Query: Another molecule to check: O=C(NCC1CC1)c1ccc2[nH]nc(NC(=O)c3ccc(F)cc3)c2c1 [Example 23]
Reply: 5.58

Query: Another molecule to check: CCC(NC(=O)c1ccc2[nH]nc(NC(=O)c3ccc(N4CC(C)OC(C)C4)cc3)c2c1)c1cccs1 (stereo not drawn) [Example 96, 2,2,2-trifluoroacetate]
Reply: 0.047

Query: Another molecule to check: O=C(Nc1n[nH]c2ccc(C(=O)NC(c3cccs3)C(F)(F)F)cc12)c1ccc(N2CCOCC2)cc1 (stereo not drawn) [Example 138]
Reply: 0.12

Query: Another molecule to check: O=C(NCc1cccs1)c1ccc2[nH]nc(NC(=O)c3ccc(NCCC4=CCCCC4)cc3)c2c1 [Example 167]
Reply: 3.9

Query: Another molecule to check: CC(NC(=O)c1ccc2[nH]nc(NC(=O)c3ccc(N4CCN[C@@H](C)C4)cc3)c2c1)c1ccccc1 (stereo partly drawn) [Example 184, 2,2,2-trifluoroacetate]
Reply: 0.015

Query: Another molecule to check: O=C(NCc1ccsc1)c1ccc2[nH]nc(NC(=O)c3ccc(N4CCOCC4)cc3)c2c1 [Example 46]
Reply: 0.022

Query: Another molecule to check: COc1ccc(C(=O)Nc2n[nH]c3ccc(C(=O)NCc4cccs4)cc23)cc1 [Example 3]
Reply: 0.11

Query: Another molecule to check: CCCCNC(=O)c1ccc2[nH]nc(NC(=O)c3ccc(F)cc3)c2c1 [Example 24]
Reply: 2.46

Query: Another molecule to check: CCCC(NC(=O)c1ccc2[nH]nc(NC(=O)c3ccc(N4CCOCC4)cc3)c2c1)c1cccs1 (stereo not drawn) [Example 58]
Reply: 0.13

Query: Another molecule to check: CN1CCN(c2ccc(C(=O)Nc3n[nH]c4ccc(C(=O)NC(C)(C)c5cccs5)cc34)cc2)CC1 [Example 136]
Reply: 0.024

Query: Another molecule to check: CC(C)CCNc1ccc(C(=O)Nc2n[nH]c3ccc(C(=O)NCc4cccs4)cc23)cc1 [Example 159]
Reply: 0.31

Query: Another molecule to check: CCC(NC(=O)c1ccc2[nH]nc(NC(=O)c3ccc(N4CCN(C)CC4)cc3)c2c1)c1nccs1 (stereo not drawn) [Example 84]
Reply: 0.069

Numbers sourced from patent US10294207B2.
